- SYSTEM_NAME: CYP2C9 (Homo sapiens, UniProt P11712)
- Construct: tissue BD-Gentest 452117; host or cells: human liver microsomes
- Sequence (P11712 whole entry): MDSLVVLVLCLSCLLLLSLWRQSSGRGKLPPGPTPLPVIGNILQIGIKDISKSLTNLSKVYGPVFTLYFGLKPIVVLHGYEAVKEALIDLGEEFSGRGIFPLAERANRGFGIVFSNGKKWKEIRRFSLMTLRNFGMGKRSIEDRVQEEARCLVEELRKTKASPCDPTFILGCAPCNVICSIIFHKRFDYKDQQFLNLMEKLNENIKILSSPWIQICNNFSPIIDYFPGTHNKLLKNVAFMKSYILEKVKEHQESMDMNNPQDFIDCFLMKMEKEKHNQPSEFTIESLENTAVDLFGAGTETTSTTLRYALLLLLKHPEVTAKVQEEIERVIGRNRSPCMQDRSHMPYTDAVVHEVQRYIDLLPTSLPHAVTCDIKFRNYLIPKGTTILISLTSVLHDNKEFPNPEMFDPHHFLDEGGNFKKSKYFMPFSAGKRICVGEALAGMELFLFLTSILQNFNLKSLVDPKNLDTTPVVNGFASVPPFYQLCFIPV
- PROTOCOL_DESCRIPTION: CYP inhibition assay in human liver microsome, CYP2C9
- Format: in vitro ADME
- EXPERIMENTAL_PARAMETERS: human, liver microsomes, probe diclofenac, HLM, diclofenac substrate, read-out: CYP inhibition % @10 uM (2C9)
PROPERTY_NAME: inhibition at 5 min, 10 µM (%)

Reference set (10 entries):
INSERT INTO results (compound, meas_value) VALUES
  ('C[C@@H]1CN(c2ccc(Cl)c3ncccc23)C[C@H](C(=O)NC2CCCNCC2)O1 (stereo partly drawn) [Example 25]', 26),
  ('C[C@@H]1CN(c2ccc(C(F)(F)F)c3ncccc23)C[C@H](C(=O)NCC2CCCCN2C)O1 (stereo partly drawn) [Example 4]', -12),
  ('C[C@@H]1CN(c2ccc(C(F)(F)F)c3ncccc23)C[C@H](C(=O)NC2CNCC(F)(F)C2)O1 (stereo partly drawn) [Example 28]', 23),
  ('Cc1ccc(N2C[C@@H](C)O[C@@H](C(=O)NCC3CN(C)CCO3)C2)c2cccnc12 (stereo partly drawn) [Example 17]', -4),
  ('C[C@H]1C[C@@H](N)CN(c2ccc(Cl)c3ncccc23)C1 [Example 23]', -16),
  ('C[C@@H]1CN(c2ccc(C(F)(F)F)c3ncccc23)C[C@H](C(=O)N2CCC3(CCNC3)C2)O1 (stereo partly drawn) [Example 36]', 1),
  ('C[C@@H]1CN(c2ccc(I)c3ncccc23)C[C@H](C(=O)NCC2CN(C)CCO2)O1 (stereo partly drawn) [Example 39]', -7),
  ('C[C@@H]1CN(c2ccc(C(F)(F)F)c3ncccc23)C[C@H](C(=O)NC2CCN(C)CC2)O1 [Example 5]', -1),
  ('C[C@@H]1CN(c2ccc(Br)c3ncccc23)C[C@H](C(=O)NC2CCN(C)CC2)O1 [Example 42]', -4),
  ('C[C@@H]1CN(c2ccc(C(F)(F)F)c3ncccc23)C[C@H](C(=O)NCC2CN(C)CCO2)O1 (stereo partly drawn) [Example 3]', -1);

A: C[C@@H]1CN(c2ccc(C(F)(F)F)c3ncccc23)C[C@H](C(=O)NCCN2CCOCC2)O1 [Example 13]
B: C[C@@H]1CN(c2ccc(C(F)(F)F)c3ncccc23)C[C@H](C(=O)NC2CCCNCC2)O1 (stereo partly drawn) [Example 8]
Lower value of inhibition at 5 min, 10 µM belongs to which: A or B ? Refer to your chosen item by its label in the answer.
B

A: C[C@@H]1CN(c2ccc(C(F)(F)F)c3ncccc23)C[C@H](C(=O)N2CCC3(CCNCC3)CC2)O1 [Example 32]
B: C[C@@H]1CN(c2ccc(C(F)(F)F)c3ncccc23)C[C@H](C(=O)NC2CNCCOC2)O1 (stereo partly drawn) [Example 14]
Given the listed records, identify the one among A and B with higher inhibition at 5 min, 10 µM. Reply briefly: the label of your chosen item.
B

* * *

- SYSTEM_NAME: human TLR8 (Homo sapiens)
- Construct: host or cells: HEK293 (HEK-Blue hTLR8)
- Sequence (Q9NR97 27-1041): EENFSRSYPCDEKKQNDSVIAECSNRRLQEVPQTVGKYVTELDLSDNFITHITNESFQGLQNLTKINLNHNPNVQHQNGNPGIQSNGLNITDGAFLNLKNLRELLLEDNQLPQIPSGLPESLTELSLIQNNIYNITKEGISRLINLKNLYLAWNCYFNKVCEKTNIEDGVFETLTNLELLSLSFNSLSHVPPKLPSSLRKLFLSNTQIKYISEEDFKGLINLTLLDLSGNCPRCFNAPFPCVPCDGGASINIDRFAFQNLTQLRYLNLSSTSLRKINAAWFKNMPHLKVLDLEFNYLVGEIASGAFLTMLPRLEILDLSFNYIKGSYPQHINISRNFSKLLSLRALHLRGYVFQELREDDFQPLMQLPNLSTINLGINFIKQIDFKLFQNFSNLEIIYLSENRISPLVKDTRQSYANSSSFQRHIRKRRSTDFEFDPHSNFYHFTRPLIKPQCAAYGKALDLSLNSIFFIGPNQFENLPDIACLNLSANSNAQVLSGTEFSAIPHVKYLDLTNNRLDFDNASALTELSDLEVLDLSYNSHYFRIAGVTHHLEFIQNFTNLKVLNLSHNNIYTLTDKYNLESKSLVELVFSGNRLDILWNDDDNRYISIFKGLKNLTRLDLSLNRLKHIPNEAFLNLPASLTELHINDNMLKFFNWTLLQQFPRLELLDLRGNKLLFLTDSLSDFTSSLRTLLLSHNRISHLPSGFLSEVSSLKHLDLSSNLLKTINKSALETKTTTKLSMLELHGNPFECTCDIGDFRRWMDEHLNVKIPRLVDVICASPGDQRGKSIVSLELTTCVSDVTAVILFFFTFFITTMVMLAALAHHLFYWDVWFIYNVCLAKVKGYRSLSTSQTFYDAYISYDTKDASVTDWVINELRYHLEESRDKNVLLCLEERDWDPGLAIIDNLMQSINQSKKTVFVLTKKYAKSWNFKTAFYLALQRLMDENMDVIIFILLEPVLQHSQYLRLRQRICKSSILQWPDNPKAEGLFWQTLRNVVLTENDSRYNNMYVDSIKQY
- PROTOCOL_DESCRIPTION: HEK293-Blue-hTLR-8 cells assay (SEAP reporter, R848 stimulation)
- Format: cell-based
- EXPERIMENTAL_PARAMETERS: HEK293-Blue-hTLR8 cells, R848, 20 hrs
pIC50: −log10 of the molar value.
PROPERTY_NAME: pIC50

Check out these entries, answers already filled in.
INSERT INTO assay_data (molecule, meas_value) VALUES
  ('C[C@@H]1CN(c2ccc(C(F)(F)F)c3ncccc23)C[C@H](C(=O)NCC2CNCC2(F)F)O1 (stereo partly drawn)', 7.85),
  ('C[C@@H]1CN(c2ccc(C(F)(F)F)c3ncccc23)C[C@H](C(=O)NCCN2CCOCC2)O1', 7.28),
  ('C[C@@H]1CN(c2ccc(C(F)(F)F)c3ncccc23)C[C@H](C(=O)NCC2COCCN2C)O1 (stereo partly drawn)', 7.21),
  ('C[C@@H]1CN(c2ccc(C(F)(F)F)c3ncccc23)C[C@H](C(=O)NC2C3CCC2CNC3)O1 (stereo partly drawn)', 8.05),
  ('C[C@@H]1CN(c2ccc(C(F)(F)F)c3ncccc23)C[C@H](C(=O)NC2C[C@H]3C[C@@H]2CN3)O1 (stereo partly drawn)', 7.37),
  ('C[C@@H]1CN(c2ccc(C(F)(F)F)c3ncccc23)C[C@H](C(=O)NC2CNC[C@@H]2F)O1 (stereo partly drawn)', 8.22);

P: C[C@@H]1CN(c2ccc(C(F)(F)F)c3ncccc23)C[C@H](C(=O)NC2CNCCOC2)O1 (stereo partly drawn)
Q: C[C@@H]1CN(c2ccc(C(F)(F)F)c3ncccc23)C[C@H](C(=O)NC2C3CNCC2COC3)O1 (single isomer, unassigned) [Example 46B]
R: C[C@@H]1CN(c2ccc(C(F)(F)F)c3ncccc23)C[C@H](C(=O)N2CCC3(CCNCC3)CC2)O1
Reorder: pIC50, max to min. Output the labels ranked as instructed.
P, R, Q
(P: 8.15, R: 7.70, Q: 7.26)

* * *

- SYSTEM_NAME: CYP2D6 (Homo sapiens, UniProt P10635)
- Construct: tissue BD-Gentest 452117; host or cells: human liver microsomes
- Sequence (P10635 whole entry): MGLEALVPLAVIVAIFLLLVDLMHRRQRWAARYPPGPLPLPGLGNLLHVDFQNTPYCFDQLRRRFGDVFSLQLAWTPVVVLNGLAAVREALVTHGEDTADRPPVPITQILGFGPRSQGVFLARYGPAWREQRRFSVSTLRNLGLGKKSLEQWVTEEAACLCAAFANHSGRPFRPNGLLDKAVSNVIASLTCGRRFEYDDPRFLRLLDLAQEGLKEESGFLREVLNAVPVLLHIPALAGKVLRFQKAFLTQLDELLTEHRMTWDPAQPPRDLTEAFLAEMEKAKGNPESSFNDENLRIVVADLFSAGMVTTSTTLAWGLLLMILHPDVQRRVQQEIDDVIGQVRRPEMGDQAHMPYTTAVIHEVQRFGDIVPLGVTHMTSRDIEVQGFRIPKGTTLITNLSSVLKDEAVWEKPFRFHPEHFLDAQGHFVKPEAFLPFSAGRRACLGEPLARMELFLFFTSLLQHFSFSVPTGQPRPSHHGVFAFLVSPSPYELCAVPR
- PROTOCOL_DESCRIPTION: CYP inhibition assay in human liver microsome, CYP2D6
- Type: in vitro ADME
- EXPERIMENTAL_PARAMETERS: human, liver microsomes, probe dextromethorphan, HLM, dextromethorphan substrate, read-out: CYP inhibition % @10 uM (2D6)
PROPERTY_NAME: inhibition at 10 min, 10 µM (%)

Record excerpt, results attached:
INSERT INTO measurements (compound_string, property_name, meas_value) VALUES
  ('C[C@@H]1CN(c2ccc(I)c3ncccc23)C[C@H](C(=O)NC2CCN(C)CC2)O1', 'inhibition at 10 min, 10 µM', -1),
  ('C[C@@H]1CN(c2ccc(C(F)(F)F)c3ncccc23)C[C@H](C(=O)NC[C@@H]2CC(F)(F)CN2)O1', 'inhibition at 10 min, 10 µM', 20);

a: C[C@@H]1CN(c2ccc(Cl)c3ncccc23)C[C@H](C(=O)NC2CCN(C)CC2)O1
b: Cc1ccc(N2C[C@@H](C)C[C@@H](N)C2)c2cccnc12
For a and b , which recorded inhibition at 10 min, 10 µM is lower? Write down the label of the entry you select.
b

* * *

- SYSTEM_NAME: CYP2D6 (Homo sapiens)
- Construct: tissue BD-Gentest 452117; host or cells: human liver microsomes
- PROTOCOL_DESCRIPTION: CYP inhibition assay in human liver microsome, CYP2D6
- Type: in vitro ADME
- EXPERIMENTAL_PARAMETERS: HLM, dextromethorphan substrate, 10 µM
PROPERTY_NAME: CYP inhibition % @10 uM (2D6) (%)

INSERT INTO assay_data (molecule, meas_value) VALUES
  ('C[C@@H]1CN(c2ccc(C(F)(F)F)c3ncccc23)C[C@H](C(=O)NC2CC3CNCC32)O1 (single isomer, unassigned) [Example 49A]', 2),
  ('CC(NC(=O)[C@H]1CN(c2ccc(C(F)(F)F)c3ncccc23)C[C@@H](C)O1)C1CN(C)CCO1 (single isomer, unassigned) [Example 35A]', 8);

I: C[C@@H]1CN(c2ccc(C(F)(F)F)c3ncccc23)C[C@H](C(=O)NC2CC3CNCC32)O1 (single isomer, unassigned) [Example 49C]
II: CC(NC(=O)[C@H]1CN(c2ccc(C(F)(F)F)c3ncccc23)C[C@@H](C)O1)C1CN(C)CCO1 (single isomer, unassigned) [Example 35B]
Please indicate which has the smaller reported CYP inhibition % @10 uM (2D6): I , or II . Response format: the label of the selected entry.
II
